Entries and their half-life values follow.
Test: Pharmacokinetic evaluation in mice
Type: in vivo, CD-1 mice
Details: male, CD-1, mouse, plasma, PO 2 mg/kg, read-out: Half-life T1/2 (PO) (converted)
Structures can show the parent of a compound that is named as a salt.
Please give a number only; it is taken to be in h.

Task: Give reported half-life value for Cc1cc(Nc2ncnn3cc(OCCN4CCC(F)(F)C4)c(C)c23)c(=O)n2c1C(=O)NC21CCCCC1 [Compound 11]
Output: 12.1

Next compound, half-life to be filled in.
Task: Return half-life for the following compound: Cc1cc(Nc2ncnn3cc(OCCN4CCCC4)c(C)c23)c(=O)n2c1C(=O)NC21CCCC1 [Compound 7 (hydrochloride)]
Output: 3.2
